Reported melting point values are given for each entry in this list.

substance smiles: CC(C)(C)OC(=O)c1cc(C(=O)NNC(=O)c2occc2-c2ccccc2)ccc1O
melting point: 147 to 154 °C
//
substance smiles: O=C(NNC(=O)c1occc1-c1cccc(OCc2ccc3ccccc3c2)c1)c1ccc(O)c([N+](=O)[O-])c1
melting point: 198 to 199 °C
//
substance smiles: CC(C)c1ccc(-c2ccoc2C(=O)NNC(=O)c2ccc(O)c([N+](=O)[O-])c2)cc1
melting point: 194 to 196 °C
//
substance smiles: CCCCCCCOc1cccc(-c2ccoc2C(=O)NNC(=O)c2ccc(O)c([N+](=O)[O-])c2)c1
melting point: 141 to 144 °C
//
substance smiles: O=C(NNC(=O)c1occc1-c1cccc(OCc2cccc3ccccc23)c1)c1ccc(O)c([N+](=O)[O-])c1
melting point: 152 to 153 °C
//
substance smiles: O=C(NNC(=O)c1occc1-c1ccc(Cc2ccccc2)cc1)c1ccc(O)c([N+](=O)[O-])c1
melting point: 154 to 157 °C
//
substance smiles: CCOc1ccccc1Cc1cccc(-c2ccoc2C(=O)NNC(=O)c2ccc(O)c([N+](=O)[O-])c2)c1
melting point: 87 to 89 °C
//
substance smiles: C=Cc1coc(C(=O)NNC(=O)c2ccc(O)c(C#N)c2)c1-c1ccccc1
melting point: 175 to 177 °C
